Assay: BSK_3C_Proliferation: Cell Proliferation Assessment in the BioMAP Diversity Plus: 3C Assay (AID 2283006)
Settings: primary human endothelial cells (HUVEC)
Experimental: BSK_3C is a cell-based, multiplexed-readout assay that uses umbilical vein endothelium, a human vascular primary cell, with measurements taken at 24 hours after chemical dosing in a 96-well plate.BSK_3C_Proliferation is an assay component measured in the BSK_3C assay. It measures 0.1% sulforhodamine related to cell proliferation using Sulforhodamine staining technology.Data from the assay component BSK_3C_Proliferation was analyzed into 1 assay endpoint. […]
Calls of active or inactive are those of the source. Rule for the calls: active = hit-call score of the fitted dose curve at least 0.9, where 1 is the maximum; inactive = score below 0.9.
Hi there, use one of these labels in your reply, thanks! Y for active, N for inactive

As a guide, the following entries are already answered.
substanceSmiles | assignedCategory
O=C(O)CC(O)(CC(=O)O)C(=O)O | N
CCCCCCCC(=O)OC | N
NC=O | N

Query block: Which outcome was entered for the molecule "O=C(NS(=O)(=O)/C=C/c1cccs1)c1ccc(F)cc1Br" in this test?
Result block: Y

Query block: Call for entry "CC(C)c1cccc(C(C)C)c1" :
Result block: N

Query block: What did this assay record as the result for "CCc1nc(N)nc(N)c1-c1ccc(Cl)cc1" ?
Result block: N
